Test system: EKVX
Assay: NCI tumour cell line growth inhibition, 48 h
Active and inactive are the calls of the source. No stated cut-off is given here; in the data, active = GI50 up to about 1.1 µM and inactive = higher.
List of GI50 values.
test-readout: GI50

• COC(=O)C1Cc2c(n(Cc3ccccc3)c3ccccc23)C(CCC(=O)O)N1C(C)C (stereo not drawn) = > 100 µM (inactive)
• C[n+]1ccc2/c(=C\C#N)c3ccccc3n21 = 24.9 µM (inactive)
• Clc1ccc(Cc2nc3cc(CCN4CCN(c5ccccc5)CC4)ccc3[nH]2)cc1 = 22 µM (inactive)
• Cc1cccc(/C=C2\CCCCCC2=O)c1 = > 100 µM (inactive)
• Cc1ccc(NP(=O)(Oc2ccccc2)N(CCCl)CCCl)cc1 (stereo not drawn) = > 100 µM (inactive)
• COC(=O)C(=O)C(C(=O)C(N)=O)c1nc2ccc(C(=O)c3ccccc3)cc2nc1O (stereo not drawn) = > 100 µM (inactive)
• NCCCNC(=O)c1csc(NC(=O)c2csc(NC(=O)CCCN)n2)n1 = > 100 µM (inactive)
• Cc1nc(C(N)=S)sc1C(=O)CC(=O)C(=O)Nc1c(C(C)C)cccc1C(C)C = > 100 µM (inactive)

Where these numbers come from: ChEMBL document CHEMBL1201862
